- Tested on: rodent lifetime carcinogenesis bioassay, tumor incidence TD50
- EXPERIMENTAL_PROTOCOL: carcinogenic potency in animals, long-term in vivo studies, CPDB compilation (AID 1745844)
- SETUP_CONDITIONS: mouse; strain Charles River CD1; males; in feed; site: thymus gland; lesion: lymphoma; dosed 38 weeks; study length 75 weeks
PROPERTY_NAME: TD50

Look up TD50: "Nc1nc(/C=C/c2ccc([N+](=O)[O-])o2)no1"
121 mg/kg/day

###

I'd be grateful if you could share measured TD50 for these entries.
- Tested on: rodent lifetime carcinogenesis bioassay, tumor incidence TD50
- EXPERIMENTAL_PROTOCOL: carcinogenic potency in animals, long-term in vivo studies, CPDB compilation (AID 1745844)
- SETUP_CONDITIONS: rat; strain Fischer 344; females; by gavage; site: mammary gland; lesion: adenocarcinoma; dosed 50 weeks; study length 104 weeks

CCCCCN(N=O)C(N)=O = 2.98 mg/kg/day

Provide the documented TD50 with rodent lifetime carcinogenesis bioassay, tumor incidence TD50 as the system for "CCCCCCN(N=O)C(N)=O"
1.73 mg/kg/day

###

- Tested on: rodent lifetime carcinogenesis bioassay, tumor incidence TD50
- EXPERIMENTAL_PROTOCOL: carcinogenic potency in animals, long-term in vivo studies, CPDB compilation (AID 1745844)
- SETUP_CONDITIONS: mouse; strain Charles River CD1; males; by gavage; site: lung; lesion: adenocarcinoma; dosed 80 weeks; study length 80 weeks
The source made the active and inactive calls. No rule for the calls is given here.
PROPERTY_NAME: TD50

Provide the documented TD50 with rodent lifetime carcinogenesis bioassay, tumor incidence TD50 as the system for Cn1cc(OCC(O)CNC(C)(C)C)c2ccccc2c1=O (stereo unspecified)
99.2 mg/kg/day (inactive)

###

- Test system: rodent lifetime carcinogenesis bioassay, tumor incidence TD50
- EXPERIMENTAL_PROTOCOL: carcinogenic potency in animals, long-term in vivo studies, CPDB compilation (AID 1745844)
- SETUP_CONDITIONS: mouse; strain CFLP; females; in feed; site: lung; lesion: adenocarcinoma; dosed 92 weeks; study length 94 weeks
Active and inactive are the calls of the source. The rule behind the calls is not given here.
PROPERTY_NAME: TD50

Look up TD50: "S=C([S-])NCCNC(=S)[S-].[Zn+2]"
6490 mg/kg/day (inactive)

###

- System: rodent lifetime carcinogenesis bioassay, tumor incidence TD50
- EXPERIMENTAL_PROTOCOL: carcinogenic potency in animals, long-term in vivo studies, CPDB compilation (AID 1745844)
- SETUP_CONDITIONS: mouse; strain Swiss; females; by gavage; site: liver; lesion: liver-cell tumor; dosed 50 weeks; study length 60 weeks
PROPERTY_NAME: TD50 (mg/kg/day)
Answers are plain numbers, in mg/kg/day.

Look up TD50: "NC(=S)NNS(=O)(=O)c1ccccc1"
46.6

###

- Tested on: rodent lifetime carcinogenesis bioassay, tumor incidence TD50
- EXPERIMENTAL_PROTOCOL: carcinogenic potency in animals, long-term in vivo studies, CPDB compilation (AID 1745844)
- SETUP_CONDITIONS: mouse; strain Swiss albino; females; in drinking water; site: liver; lesion: several types; types named in the paper; dosed 83 weeks; study length 83 weeks
PROPERTY_NAME: TD50 (mg/kg/day)
Numbers only, in mg/kg/day.

NNC=O = 6860

Look up TD50: "O=CNNC=O"
89200

Reference source for all entries: PubChem BioAssay AID1745844
